- experiment_notes: calcein-AM signal in unstimulated myeloma cells – cell-based, calcein-AM fluorescence, 48 h, PK04 Diversity Set, profiling panel (AID 1166);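 also: cells grown under basal conditions without added stimulus; test concentration not given here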
- condition_description: RPMI8226 myeloma viability, higher = more signal
recorded_endpoint: z-score

- molecule: "CCCCN1CC=CC23O[C@@H]4/C=C\\CCCOC(=O)C4[C@H]2C(=O)N(CCCO)[C@@H]3C1=O (some centres not stated)"
  recorded_endpoint: "z-score"
  experimental_value: -0.568
- molecule: "COCCOC(=O)N1C(=O)[C@@]2(c3cc(C#Cc4ccc(OC)cc4)ccc31)[C@H](c1ccc(O)cc1)N1[C@H](c3ccccc3)[C@H](c3ccccc3)OC(=O)[C@H]1[C@@H]2C(=O)Nc1nc2ccccc2s1"
  recorded_endpoint: "z-score"
  experimental_value: -1.6
- molecule: "NC(=O)[C@@H]1[C@H]2C(=O)O[C@H](c3ccccc3)[C@H](c3ccccc3)N2[C@H](c2ccc(O)cc2)[C@@]12C(=O)Nc1ccc(C#CC3=CCCCC3)cc12"
  recorded_endpoint: "z-score"
  experimental_value: -4.17
- molecule: "CCCCN1CC=CC23O[C@@H]4C=CCOC(=O)[C@@H]4[C@H]2C(=O)N(CCCCCCO)[C@@H]3C1=O (some centres not stated)"
  recorded_endpoint: "z-score"
  experimental_value: 0.569
- molecule: "O=C1NC(=O)C2C1C=CC(C(O)c1ccc(-c3ccccc3)s1)N2Nc1ccc(Cl)cc1Cl (configuration not stated)"
  recorded_endpoint: "z-score"
  experimental_value: -3.05
- molecule: "Cc1c(NC(=O)/C(C#N)=C/c2cccc([N+](=O)[O-])c2)c(=O)n(-c2ccccc2)n1C"
  recorded_endpoint: "z-score"
  experimental_value: 2.4

Query molecule follows.
Task: Let me know recorded z-score for CC(C)NC(=O)[C@@H]1c2ccccc2C(=O)N(C(C)C)[C@H]1c1ccc(CO)cc1 , thanks.
Output: 0.947

---

- experiment_notes: hepatitis C replication reporter changes, two-sided – Huh7 cells, luciferase reporter, HCV replication inhibitor project, primary screen (AID 1109);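 also: huh7 hepatoma cells harbouring a luciferase neomycin HCV replicon reporter; luciferase luminescence as measure of HCV replicon replication; test concentration not given here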
- condition_description: Huh7 HCV replicon luciferase reporter, 48 h; higher = more signal
recorded_endpoint: z-score
Number only, no unit.

Observe how each entry below is paired with its result.
- compound: "O=C1O[C@@H](c2ccccc2)[C@@H](c2ccccc2)N2[C@@H](c3ccc(OCCO)cc3)[C@]3(C(=O)Nc4ccc(C#CCCO)cc43)[C@@H](C(=O)NC[C@H](O)c3ccccc3)[C@H]12"
  experimental_value: -1.25
- compound: "CCCNC(=O)[C@@H]1c2ccccc2C(=O)N(Cc2ccccc2OC)[C@H]1c1ccc(CO)cc1"
  experimental_value: -1.12
- compound: "COc1ccccc1CN1C(=O)c2ccccc2[C@@H](C(=O)NCc2ccccc2)[C@@H]1c1ccc(CO)cc1"
  experimental_value: -1.01
- compound: "OB1C=CCC(CCc2ccccc2)O1 (stereo not drawn)"
  experimental_value: 1.1
- compound: "COc1ccc(C(O)C2C=CC3C(=O)N(C)C(=O)C3N2NC(=O)OC(C)(C)C)c2ccccc12 (stereo not drawn)"
  experimental_value: -1.45

Task: Read the entry C#CCNCc1ccccc1 and write its reported z-score.
Output: 0.141

Task: Supply recorded z-score for CC#CC(=O)Oc1ccc(Br)cc1C=CC(=O)OCC here.
Output: -2.4

Task: Please supply the value of reported z-score for the item CO[C@H]1O[C@H](CO)[C@@H](OC(=O)Nc2ccccc2-c2ccccc2)[C@H](OC(=O)Nc2ccccc2-c2ccccc2)[C@@H]1OC(=O)Nc1ccccc1-c1ccccc1
Output: -1.77
